# Test system: HL-60(TB) leukemia
# assay.notes: NCI tumour cell line growth inhibition, 48 h; in the data active means GI50 below about 0.43 µM; inactive means the rest
Classes used: YES (active), NO (inactive)

> print(dat)
                                   compound  class.name
1  COc1cc(/C=N/NC(=O)c2cnn3c2NC(c2ccccc2)C3)ccc1OCc1ccccc1 (stereo unspecified)         YES
2  COc1ccccc1NC(=O)c1sc2ncn(CCOc3ccccc3)c(=O)c2c1C          NO
3  O=C(c1ccccc1)c1nn(-c2cccc(Cl)c2)c2nc3nc(-c4ccccc4)cc(=O)n3nc12          NO
4  COc1cc(C(=O)/C=C/c2c[nH]c3ccccc23)cc(OC)c1OC         YES
5  c1c2c(cc3c1OCO3)-c1ncc3cc4c(cc3c1C2)OCO4         YES
6            COc1cccc(/C=C\C(=O)c2ccccc2)c1          NO
